- test: Human HepG2 cell viability assay in 384 well format
- Type: toxicity, cell-based
- Set-up: dose 125 nL, time 70.5 hour; concentration not given beside the values
- setup_conditions: HepG2 cells, read-out: Inhibition
measured_attribute: cytotoxicity at 70.5 h (%)

INSERT INTO assay_data (compound, unit_of_measurement, recorded_measurement) VALUES
  ('Cc1cnn(CC(C)Nc2cnc3ccccc3n2)c1 (stereo not drawn)', '%', 4.57),
  ('CN1CCN(C)C(CNC(=O)N(C)Cc2ccc(Cl)c(F)c2)C1 (stereo not drawn)', '%', -11.2),
  ('Cc1cncnc1C1CCN(CC2CC2)CC1', '%', 19.8),
  ('CCc1nn2c(=N)c(C#N)n[nH]c2c1-c1ccc(OC)cc1', '%', -18.3),
  ('NCCc1cccc(CN2CCN(c3cccc(Cl)c3)C(=O)C2)c1', '%', -7.22),
  ('Cc1cnn(CC(C)NCc2cc(=O)n3ccccc3n2)c1 (stereo not drawn)', '%', -11.2),
  ('CS(=O)(=O)N1CCC(NCC2(N3CCOCC3)CCCCC2)CC1', '%', -12.3),
  ('CCN(Cc1nccs1)Cc1cc(Cl)ccc1OC', '%', 2.82),
  ('CC(=O)N[C@H](C)c1c(-c2ccc(Cl)cc2)noc1C(=O)O', '%', -6.07),
  ('CC(C)Cc1cc(C(=O)NCCc2ccc(S(C)(=O)=O)cc2)[nH]n1', '%', -7.03),
  ('CCc1noc(C(C)SCCS(C)(=O)=O)n1 (stereo not drawn)', '%', -7.13),
  ('CC(NC(=O)Nc1cccnc1N1CCOCC1)c1ccccc1 (stereo not drawn)', '%', -8.45),
  ('CCn1ccc2ccnc(CC3CN(C(=O)c4cnco4)C3)c21', '%', -6.85),
  ('CN(C)Cc1nnc(C2CCCN(c3nccc4ccccc34)C2)n1C (stereo not drawn)', '%', -12.2),
  ('O=C(NCC(F)(F)F)c1ccc(-n2cccn2)nn1', '%', 5.82),
  ('COCC1CN(C(=O)C2=CCCCC2)Cc2cnn(CC3CC3)c21 (stereo not drawn)', '%', -2.03),
  ('CNS(=O)(=O)c1ccc(CNC(=O)c2cc(C)no2)cc1', '%', -11.9),
  ('COc1ccc(CCC(=O)N2CCNCC2C(=O)N2CCCC2)cc1 (stereo not drawn)', '%', -6.16),
  ('CN1CCC(N(CCc2ccccc2)C(=O)COCC2CCCO2)CC1 (stereo not drawn)', '%', -0.746),
  ('Cc1cc(C(=O)NCC2CCC3(CC2)OCCO3)[nH]n1', '%', 1.56),
  ('CCOCCNC(=O)c1cccnc1Sc1cc(OC)ccc1OC', '%', 15.5),
  ('COc1cc(F)ccc1-c1cnc(N)cn1', '%', -13.6),
  ('OCCN(CCO)Cc1ccc(Br)c2cccnc12', '%', -1.86);

---

// cytotoxicity at 70.5 h lookup, one value per entry
- test: Human HepG2 cell viability assay in 384 well format
- Type: toxicity, cell-based
- Set-up: dose 125 nL, time 70.5 hour; concentration not given beside the values
- setup_conditions: HepG2 cells, read-out: Inhibition
measured_attribute: cytotoxicity at 70.5 h (%)

INSERT INTO measurements (compound, unit_of_measurement, recorded_measurement) VALUES
  ('Cc1cnc(CN2CC=C(c3c[nH]c4ncccc34)CC2)o1', '%', 5.53),
  ('O=C(Cc1cccc(F)c1F)NS(=O)(=O)c1cncc(Cl)c1', '%', -2.5),
  ('c1ccc(-c2nnc(CNC3CCCN(c4cccnn4)C3)o2)cc1 (stereo not drawn)', '%', -16.9),
  ('O=C(CNC(=O)c1cnc2ccccc2c1O)NCCn1ccnc1', '%', -6.04),
  ('COCC(Nc1nc(N(C)C)nc2c1CCNCC2)c1ccccn1 (stereo not drawn)', '%', 4.09),
  ('CCN1CC2(CC1=O)CN(C(=O)NC(C)C)CCN(C(=O)C(C)C)C2 (stereo not drawn)', '%', -3.19),
  ('Cc1ccc2nc(-c3nc4c([nH]3)CCCNC4=O)cn2c1', '%', -10.1),
  ('COC(=O)C1(NCC(=O)Nc2cc(C)ccc2OC)CCCCC1', '%', 2.15),
  ('Cc1ccc(CCC(=O)N2CCCC(c3cc(C(N)=O)[nH]n3)C2)cc1 (stereo not drawn)', '%', 0.115),
  ('CC(NC(=O)C1CCCCC1)c1cc(O)nc(-c2cccnc2)n1 (stereo not drawn)', '%', -4.35),
  ('Cc1noc([C@@H]2CC[C@@H]3[C@@H](CCN3S(C)(=O)=O)O2)n1', '%', -16.7),
  ('CCOc1ccccc1NC(=O)NCC(C)(O)CCSC (stereo not drawn)', '%', -3.88),
  ('CCc1cc(C(=O)NCC2CCN(Cc3ccncc3)CC2)on1', '%', -9.67),
  ('O=C(Nc1nc2c(s1)CCC2)c1cccnc1N1CCOCC1', '%', -0.827),
  ('Cc1noc(C)c1CN(C)C(=O)NC(C)Cc1ccco1 (stereo not drawn)', '%', -1.49),
  ('CC(C)CNC(=O)Cn1cc(C(N)=O)c(-c2ccccc2)n1', '%', -8.01),
  ('CCN1CCn2c(C)cnc2C12CCN(C(=O)c1cscn1)CC2', '%', 4.22),
  ('Cn1ccc(C(=O)N2CCN(CC(O)C(C)(C)C)CC2)cc1=O (stereo not drawn)', '%', -5.62),
  ('CC(Nc1ncnc2c1NC(=O)CN2)c1ccccn1 (stereo not drawn)', '%', -13.6),
  ('Cc1nn(-c2ccccc2)c2c1C(c1ccc(C(=O)O)cc1)CC(=O)N2 (stereo not drawn)', '%', -3.05),
  ('CN(Cc1ccc(N(C)C)cc1)C(=O)CSc1ccc(Br)cc1', '%', -9.49),
  ('Cc1nc(C2(O)CCCNCC2)sc1CCOc1ccc(F)cc1 (stereo not drawn)', '%', 16.3),
  ('COc1ccc2c(C(=O)N(C)C)cc(-c3cnc(N)nc3)nc2c1', '%', -3.44),
  ('N#Cc1cnc2ccccc2c1N1CCC(C(=O)O)CC1', '%', -4.5),
  ('Cc1ccccc1NC(=O)Nc1c[nH]c(=O)[nH]c1=O', '%', -9.84),
  ('CCN1CCCC(c2c(-c3ccccc3)ncn2Cc2csc(N)n2)C1 (stereo not drawn)', '%', -0.765),
  ('CS(=O)(=O)c1cccc(S(=O)(=O)NC(=O)CC2CCCC2)c1', '%', -3.3),
  ('Cc1nn(CC(C)C)c(N(C)C)c1CNCc1cccc2c1OCO2', '%', 10.6),
  ('CCOc1ncccc1CNC(=O)N1CCCC1c1cc(C)no1 (stereo not drawn)', '%', -12.6),
  ('Cc1cc2nc(C(C)C)cc(N(C)CC3CCCN3C)n2n1 (stereo not drawn)', '%', -10.7),
  ('Brc1csc(CNCc2nnc3n2CCC3)c1', '%', -12.4),
  ('CC(C(=O)NCC1(c2cccc(Br)c2)CCC1)S(C)(=O)=O (stereo not drawn)', '%', 7),
  ('Cc1nn(C)cc1-c1cc(C(F)F)nc2sc(C(N)=O)c(N)c12', '%', 7.12);

---

Listed here are compounds together with their documented cytotoxicity at 70.5 h.
- test: Human HepG2 cell viability assay in 384 well format
- Assay type: toxicity, cell-based
- Parameters: dose 125 nL, time 70.5 hour; concentration not given beside the values
- setup_conditions: HepG2 cells, read-out: Inhibition
measured_attribute: cytotoxicity at 70.5 h (%)

INSERT INTO assay_data (compound, recorded_measurement) VALUES
  ('O=C(NCc1nn(-c2ccccc2)c2c1CCC2)NC1CCC(O)CC1 (stereo unspecified)', -8.01),
  ('CC(=O)NCc1ccc(S(=O)(=O)NC(=O)c2ccc3c(c2)COC3)cc1', -4.89),
  ('CN1C[C@H](NC(=O)c2cscn2)[C@@H]2OCCC[C@@H]21', -6.86),
  ('CCC1COCCN1C(=O)NCc1nccn1CCc1ccccc1 (stereo unspecified)', -5.72),
  ('CN(C)CCCNC(=O)c1cc(-c2ccc3c(c2)CCO3)n[nH]1', 10.7),
  ('O=C(Cc1n[nH]c(-c2cncc(Br)c2)n1)NCc1ccncc1', -9.88),
  ('CO[C@H]1[C@@H]2CC[C@H]1CN(c1nc(C)nc3ccsc13)C2', 19.4),
  ('Cc1nn(C)c(N(C)C)c1CNCc1cccc(CN(C)C)c1', -3.97),
  ('Cn1ccc(CNC(=O)N2CCC(C3(C)OCCO3)CC2)c1', -8.7),
  ('Cc1cc(CN(C)C2CCCN(c3cccnn3)C2)on1 (stereo unspecified)', 28.9),
  ('COc1ccc(CCn2ccnc2-c2cc3n(n2)CCCNC3)cc1', -10.7),
  ('Cc1ccccc1CN(CCN(C)C)Cc1ncc[nH]1', -7.18),
  ('COCCN1CCC(c2nc3ccc(-c4ccccc4)cn3n2)CC1', 1.72),
  ('O=C(CCc1cccs1)N1CCC(N2CCNC2=O)CC1', -0.95),
  ('CC(=O)c1cc(CN2C[C@@H](N(C)C)[C@H](C(C)C)C2)cs1', 8.63),
  ('NC(=O)Nc1ccc(C(=O)NCCn2cccc2)cc1', -11.7),
  ('CCNC(=O)[C@@H]1C[C@H](NC(=O)c2ccccc2C#N)CN1CCCSC', -2.96),
  ('COc1ccc(-c2noc([C@@H]3C[C@@H](O)CN3C3CCCCC3)n2)cc1', -1.99),
  ('N#Cc1cc(NC(=O)c2ccccc2)ccc1N1CCC(O)CC1', 1.64),
  ('CCOCCCNC(=O)c1cn(C(C)(C)C)c2ncccc12', 20.9),
  ('CCc1ccc(S(=O)(=O)Nc2cc(OC)c(OC)cc2C(=O)O)s1', 4.71);
